These data points were gathered from ChEMBL document CHEMBL3039007.

target.entity: Solute carrier organic anion transporter family member 1B1 (Homo sapiens, UniProt Q9Y6L6)
Sequence (Q9Y6L6 whole entry): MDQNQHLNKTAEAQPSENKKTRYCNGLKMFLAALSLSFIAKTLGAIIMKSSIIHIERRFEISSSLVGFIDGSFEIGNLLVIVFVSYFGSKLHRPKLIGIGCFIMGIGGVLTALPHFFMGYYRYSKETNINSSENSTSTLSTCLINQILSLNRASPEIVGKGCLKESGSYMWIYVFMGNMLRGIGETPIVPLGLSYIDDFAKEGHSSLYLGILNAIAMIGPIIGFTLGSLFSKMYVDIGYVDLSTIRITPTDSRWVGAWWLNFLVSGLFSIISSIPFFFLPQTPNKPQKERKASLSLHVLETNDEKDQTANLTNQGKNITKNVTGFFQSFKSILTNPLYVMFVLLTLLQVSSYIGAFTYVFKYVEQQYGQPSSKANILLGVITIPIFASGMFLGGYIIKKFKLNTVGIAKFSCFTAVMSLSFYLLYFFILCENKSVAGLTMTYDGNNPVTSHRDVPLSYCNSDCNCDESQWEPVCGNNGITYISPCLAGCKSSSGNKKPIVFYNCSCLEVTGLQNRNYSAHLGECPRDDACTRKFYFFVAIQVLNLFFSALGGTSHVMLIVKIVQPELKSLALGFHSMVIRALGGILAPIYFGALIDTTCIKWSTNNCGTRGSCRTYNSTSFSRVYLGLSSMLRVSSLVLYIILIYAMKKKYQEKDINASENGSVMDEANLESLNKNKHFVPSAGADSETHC
measurement.parameters: chinese hamster, cho, 10 µM
readout.type: residual activity (%)
Numbers only, in %.

{"compound": "O=C(O)/C=C\\C(=O)O.c1ccc2nc(N3CCNCC3)ccc2c1 [QUIPAZINE MALEATE]", "readout.type": "residual activity", "test.result": 102.6}

Provide residual activity for all items below, preserving their order.
1. CCCC(C)C1(CC)C(=O)NC(=O)NC1=O (stereo unspecified)
2. C[N+](C)(C)CC(=O)O.[Cl-] [BETAINE HYDROCHLORIDE]
3. Cc1cc(O)cc(=O)o1
4. Nc1ncnc2c1ncn2[C@@H]1O[C@H](COP(=O)(O)O)[C@@H](O)[C@H]1O [ADENOSINE PHOSPHATE]
5. COc1ccc(C(=O)CC(=O)O)c2c1C=CC(C)(C)O2

A.
1: 94.35; 2: 82.22; 3: 87.56; 4: 91.52; 5: 116

###

For each record, write down the corresponding residual activity.
target.entity: Solute carrier organic anion transporter family member 1B3 (Homo sapiens, UniProt Q9NPD5)
Sequence (Q9NPD5 whole entry): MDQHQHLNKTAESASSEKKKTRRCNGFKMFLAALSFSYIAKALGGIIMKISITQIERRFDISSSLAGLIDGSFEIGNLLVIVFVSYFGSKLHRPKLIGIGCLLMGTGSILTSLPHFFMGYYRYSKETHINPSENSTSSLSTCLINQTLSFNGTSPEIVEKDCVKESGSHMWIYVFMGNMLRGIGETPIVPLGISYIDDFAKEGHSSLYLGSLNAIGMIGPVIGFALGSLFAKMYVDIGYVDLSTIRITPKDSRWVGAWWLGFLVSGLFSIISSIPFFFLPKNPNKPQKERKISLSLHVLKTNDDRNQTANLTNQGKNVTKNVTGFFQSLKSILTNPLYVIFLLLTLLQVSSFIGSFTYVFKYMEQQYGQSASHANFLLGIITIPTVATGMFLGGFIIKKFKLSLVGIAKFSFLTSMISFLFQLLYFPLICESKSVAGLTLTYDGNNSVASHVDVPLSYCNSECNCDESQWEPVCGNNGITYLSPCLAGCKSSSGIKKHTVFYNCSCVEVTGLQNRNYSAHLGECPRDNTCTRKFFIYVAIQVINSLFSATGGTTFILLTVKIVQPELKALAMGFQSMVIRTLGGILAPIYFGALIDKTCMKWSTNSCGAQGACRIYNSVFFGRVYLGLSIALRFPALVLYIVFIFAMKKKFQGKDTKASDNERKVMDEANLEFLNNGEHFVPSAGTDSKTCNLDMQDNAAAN
measurement.parameters: chinese hamster, cho, 10 µM
Give bare numbers, in %.

Use the examples below as a reference point.
{"compound": "Nc1ncnc2c1ncn2[C@@H]1O[C@H](COP(=O)(O)O)[C@@H](O)[C@H]1O [ADENOSINE PHOSPHATE]", "measure.unit": "%", "residual activity": 90.72}
{"compound": "C#CCCCCCCCCCCCC(=O)CC(O)COC(C)=O (centres undefined) [AVOCADYNONE ACETATE]", "measure.unit": "%", "residual activity": 100.5}

Go through the items and report each one's residual activity.
1. COc1ccc2c(c1)CC[C@@H]1[C@@H]2CC[C@]2(C)[C@@H](O)[C@H](O)C[C@@H]12
2. C=C1CCC(C2CC(=O)OC2=O)C(=O)CCC2C1CC2(C)C (centres undefined)
3. Oc1ccc2c(c1)OC[C@]1(O)Cc3cc(O)c(O)cc3[C@H]21 [BRAZILIN]

A.
1: 103.4; 2: 47.58; 3: 101.4

Please state residual activity for every compound in the list that follows.
1. C[C@H]1CC[C@@]2(OC1)O[C@H]1C[C@H]3[C@@H]4CC[C@@H]5C[C@@H](O)CC[C@]5(C)[C@H]4CC[C@]3(C)[C@H]1[C@@H]2C [SARSASAPOGENIN]
2. CC[C@@H](C(=O)[C@@H](C)[C@@H](O)[C@H](C)[C@@H]1O[C@@H]([C@@H](CC)C(=O)[O-])CC[C@@H]1C)[C@H]1O[C@]2(C=C[C@@H](O)[C@]3(CC[C@@](C)([C@H]4CC[C@](O)(CC)[C@H](C)O4)O3)O2)[C@H](C)C[C@@H]1C.[Na+] [SALINOMYCIN SODIUM]
3. CC(C)NCC(O)COc1ccc(CC(N)=O)cc1 (centres undefined) [ATENOLOL]
4. COc1cc(-c2coc3cc(OC)c(OC)c(OC)c3c2=O)cc(OC)c1OC [IRIGENIN TRIMETHYL ETHER]
5. CC(=O)O[C@H]1C[C@@H](OC(C)=O)C(C)(C)[C@@H]2C[C@@H](OC(C)=O)[C@]3(C)[C@H]([C@H](OC(C)=O)C[C@@]4(C)[C@H](c5ccoc5)OC(=O)[C@H]5O[C@@]534)[C@@]12C

A.
25.69
16.99
93.81
91.27
46.1

// each compound listed below needs its residual activity
1. Nc1nccs1 [AMINOTHIAZOLE]
2. Cl[C@H]1[C@H](Cl)[C@@H](Cl)[C@@H](Cl)[C@H](Cl)[C@H]1Cl [LINDANE]
3. Cl.O=C1CC[C@@]2(O)[C@H]3Cc4ccc(O)c5c4[C@@]2(CCN3CC2CC2)[C@H]1O5 [NALTREXONE HYDROCHLORIDE]
4. CO[C@H]1C[C@H](O[C@H]2CC[C@]3(C=O)[C@H]4CC[C@]5(C)[C@@H](C6=CC(=O)OC6)CC[C@]5(O)[C@@H]4CC[C@]3(O)C2)O[C@H](C)[C@H]1O [CYMARIN]

A.
[76.59, 90.09, 86.99, 87.59]

###

target.entity: Solute carrier organic anion transporter family member 1B3 (Homo sapiens, UniProt Q9NPD5)
measurement.parameters: chinese hamster, cho, 10 µM
readout.type: residual activity

Study these solved cases before continuing.
{"molecule": "Cc1cc(=O)oc2cc(O)cc(O)c12 [5,7-DIHYDROXY-4-METHYLCOUMARIN]", "residual activity": "106.7%"}
{"molecule": "Cc1onc(-c2ccccc2Cl)c1C(=O)N[C@@H]1C(=O)N2[C@@H]1SC(C)(C)[C@@H]2C(=O)[O-].O.[Na+] [CLOXACILLIN SODIUM]", "residual activity": "63.22%"}
{"molecule": "COc1ccc(C2CC(=O)c3ccc(OC)cc3O2)cc1 (centres undefined)", "residual activity": "114.3%"}

Q. // returns reported residual activity for input C[C@H](CCC(=O)O)[C@H]1CC[C@H]2[C@@H]3[C@H](O)C[C@@H]4C[C@H](O)CC[C@]4(C)[C@H]3CC[C@]12C
A. 71.62%

###

target.entity: Solute carrier organic anion transporter family member 1B1 (Homo sapiens, UniProt Q9Y6L6)
measurement.parameters: chinese hamster, cho, 10 µM
API: label(entry) gives Satisfied if the entry's residual activity is strictly smaller than 80%; on equality or larger values it gives Not satisfied.

Solved cases (8 shown):
{"compound": "NCCC(=O)N[C@@H](Cc1cnc[nH]1)C(=O)O", "category": "Satisfied"}
{"compound": "COc1cc(C)c2c(c1C=O)Oc1c(c(C)c(O)c3c1C(O)OC3=O)OC2=O (configuration not stated)", "category": "Not satisfied"}
{"compound": "CC(=O)OCC(COC(C)=O)OC(C)=O", "category": "Not satisfied"}
{"compound": "[N-]=[N+]=CC(=O)OC[C@H](N)C(=O)O", "category": "Not satisfied"}
{"compound": "CCOC(=O)C1C(C=C(C)C)C1(C)C (configuration not stated)", "category": "Not satisfied"}
{"compound": "CCC(C)C(=O)O[C@@H]1C[C@@]2(C)[C@H](c3ccoc3)OC(=O)CC23OC2(C)O[C@]14[C@]1(C)[C@@H](CC(=O)OC)C5(C)CC1(O)[C@](O)(C5OC(=O)C1(C)OC1C)[C@@H](OC(C)=O)[C@]34O2 (some centres not stated)", "category": "Satisfied"}
{"compound": "CNC(=O)CSP(=S)(OC)OC [DIMETHOATE]", "category": "Not satisfied"}
{"compound": "C#CC1(O)CC[C@H]2[C@@H]3CCC4=CC(=O)CC[C@@H]4[C@H]3CC[C@@]21CC (some centres not stated)", "category": "Not satisfied"}

Q. Hello, is residual activity of the following compound strictly smaller than 80%? CCN(CC)C(C)CN1c2ccccc2Sc2ccccc21.Cl (configuration not stated) [ETHOPROPAZINE HYDROCHLORIDE]
A. Satisfied

Q. Further, for COc1ccc(-c2cc(=O)c3c(O)cc(O[C@H]4O[C@H](CO[C@@H]5O[C@@H](C)[C@H](O)[C@@H](O)[C@H]5O)[C@@H](O)[C@H](O)[C@H]4O)cc3o2)cc1 [BUDDLEOFLAVONOLOSIDE] ?
A. Satisfied

Q. Do the same for CC1=C(/C=C/C(C)=C/C=C/C(C)=C/CO)C(C)(C)CCC1 please
A. Satisfied

Q. Would you kindly repeat that for C=CCc1cc(OC)c2c(c1OC)OCO2 ?
A. Not satisfied

Q. Lookup C[C@@]12C[C@@]3(O)O[C@@H](O1)[C@]1(COC(=O)c4ccccc4)[C@H]3C[C@@]12O[C@@H]1O[C@H](CO)[C@@H](O)[C@H](O)[C@H]1O
A. Not satisfied
